TEST SUMMARY: Hemolytic activity in human Red blood cell incubated for 2 hrs by spectrophotometric analysis
Assay type: toxicity, cell-based, Erythrocyte
EXPERIMENTAL PARAMETERS: red blood cells (erythrocytes)
Where a SMILES comes first, the peptide text is derived from it. The star is where a group is joined. X1 = C[C@H](O)[C@H]1C(=O)N2C(C(=O)*)=C(S[C@@H]3CN[C@H](C(=O)N(C)C)C3)[C@@H](C)[C@H]12
HC50 at 2 h values, listed per item
Provide only the numeric value, understood in µg/mL.

- COMPOUND: "C[C@H](O)[C@H]1C(=O)N2C(C(=O)NCCCC[C@@H]3NC(=O)[C@H](CCCNC(=N)N)NC(=O)[C@H](CCCNC(=N)N)NC(=O)[C@H](CCCNC(=N)N)NC(=O)[C@H](CCCNC(=N)N)NC(=O)[C@H](CCCNC(=N)N)NC(=O)[C@H](Cc4c[nH]c5ccccc45)NC(=O)[C@H](Cc4c[nH]c5ccccc45)NC(=O)[C@H](Cc4c[nH]c5ccccc45)NC(=O)[C@H](Cc4c[nH]c5ccccc45)NC3=O)=C(S[C@@H]3CN[C@H](C(=O)N(C)C)C3)[C@@H](C)[C@H]12 (cyclo(K(X1)WWWWRRRRR))"
  VALUE OBSERVED: 255

Quick note, HC50 at 2 h for N=C(N)NCCC[C@@H]1NC(=O)[C@H](CCCNC(=N)N)NC(=O)[C@H](CCCNC(=N)N)NC(=O)[C@H](CCCNC(=N)N)NC(=O)[C@H](Cc2c[nH]c3ccccc23)NC(=O)[C@H](Cc2c[nH]c3ccccc23)NC(=O)[C@H](Cc2c[nH]c3ccccc23)NC(=O)[C@H](Cc2c[nH]c3ccccc23)NC(=O)[C@H](CCCCN)NC(=O)[C@H](CCCNC(=N)N)NC1=O (cyclo(KWWWWRRRRR)) landed at 320
